Target protein (sequence): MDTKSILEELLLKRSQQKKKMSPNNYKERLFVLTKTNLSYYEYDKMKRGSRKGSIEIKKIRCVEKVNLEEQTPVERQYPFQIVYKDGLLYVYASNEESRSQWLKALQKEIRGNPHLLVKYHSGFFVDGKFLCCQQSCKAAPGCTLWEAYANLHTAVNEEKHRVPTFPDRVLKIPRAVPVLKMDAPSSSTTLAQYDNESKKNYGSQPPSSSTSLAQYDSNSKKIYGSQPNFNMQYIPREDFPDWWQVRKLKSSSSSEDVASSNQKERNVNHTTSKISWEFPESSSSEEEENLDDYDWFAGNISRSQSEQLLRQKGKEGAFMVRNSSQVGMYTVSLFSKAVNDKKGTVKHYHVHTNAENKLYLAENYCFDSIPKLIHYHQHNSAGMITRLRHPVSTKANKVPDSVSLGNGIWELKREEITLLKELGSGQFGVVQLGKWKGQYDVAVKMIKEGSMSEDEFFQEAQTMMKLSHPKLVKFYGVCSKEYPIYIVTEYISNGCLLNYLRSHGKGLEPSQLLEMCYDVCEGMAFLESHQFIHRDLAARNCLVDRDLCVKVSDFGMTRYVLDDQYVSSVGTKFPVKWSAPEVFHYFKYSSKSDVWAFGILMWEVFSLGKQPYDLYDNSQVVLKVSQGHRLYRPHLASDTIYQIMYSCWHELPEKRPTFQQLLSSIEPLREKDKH
endpoint label: IC50

mol_smiles=C=CC(=O)N1CCC[C@@H](n2c(=O)n(-c3ccc(Oc4ccccc4)cc3)c3c(N)nccc32)C1 observed_value="2.5 nM"

* * *

Molecular target: RIPK2 (Homo sapiens, UniProt O43353)
Sequence (O43353 whole entry): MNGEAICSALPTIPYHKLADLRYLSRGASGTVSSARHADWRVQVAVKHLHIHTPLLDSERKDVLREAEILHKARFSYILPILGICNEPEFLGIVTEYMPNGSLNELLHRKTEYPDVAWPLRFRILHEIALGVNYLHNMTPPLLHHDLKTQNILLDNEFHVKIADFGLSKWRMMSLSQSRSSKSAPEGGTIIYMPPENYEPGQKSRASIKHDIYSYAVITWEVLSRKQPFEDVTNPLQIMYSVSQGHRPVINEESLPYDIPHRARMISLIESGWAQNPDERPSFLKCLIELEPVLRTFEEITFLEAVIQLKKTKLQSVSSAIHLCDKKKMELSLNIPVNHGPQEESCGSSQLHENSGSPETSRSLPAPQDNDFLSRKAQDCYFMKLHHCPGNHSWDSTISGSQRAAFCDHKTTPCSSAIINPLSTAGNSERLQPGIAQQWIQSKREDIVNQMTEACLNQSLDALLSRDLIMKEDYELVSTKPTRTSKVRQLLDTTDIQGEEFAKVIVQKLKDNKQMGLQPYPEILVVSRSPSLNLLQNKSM
pIC50: −log10 of the molar value.
endpoint label: pIC50

mol_smiles=C=CC(=O)N1CCC[C@@H](n2c(=O)n(-c3ccc(Oc4ccccc4)cc3)c3c(N)nccc32)C1 endpoint_label=pIC50 observed_value=6.90
mol_smiles=C=CC(=O)N1CCC(CNc2ncnc(N)c2-c2ccc(Oc3ccccc3)cc2)CC1 endpoint_label=pIC50 observed_value=5.36

* * *

Molecular target: MKNK2 (Homo sapiens, UniProt Q9HBH9)
Sequence (Q9HBH9 whole entry): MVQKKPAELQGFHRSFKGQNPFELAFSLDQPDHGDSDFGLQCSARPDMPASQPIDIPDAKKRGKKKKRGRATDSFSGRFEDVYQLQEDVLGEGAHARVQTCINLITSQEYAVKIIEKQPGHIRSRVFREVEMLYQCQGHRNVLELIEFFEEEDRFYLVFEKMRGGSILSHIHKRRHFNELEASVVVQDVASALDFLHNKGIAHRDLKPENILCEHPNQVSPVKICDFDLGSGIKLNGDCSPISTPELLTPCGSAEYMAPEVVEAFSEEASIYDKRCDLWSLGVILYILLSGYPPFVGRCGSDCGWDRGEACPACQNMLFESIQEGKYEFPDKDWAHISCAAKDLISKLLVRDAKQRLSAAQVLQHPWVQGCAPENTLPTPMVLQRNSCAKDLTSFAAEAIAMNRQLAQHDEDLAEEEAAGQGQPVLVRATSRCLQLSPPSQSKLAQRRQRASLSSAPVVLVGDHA
endpoint label: IC50 (µM)

compound="C=CC(=O)N1CCC(CNc2ncnc(N)c2-c2ccc(Oc3ccccc3)cc2)CC1 [Evobrutinib]" unit_symbol=µM observed_value=4.13

* * *

Target: UniProt:P09769
Sequence (P09769 whole entry): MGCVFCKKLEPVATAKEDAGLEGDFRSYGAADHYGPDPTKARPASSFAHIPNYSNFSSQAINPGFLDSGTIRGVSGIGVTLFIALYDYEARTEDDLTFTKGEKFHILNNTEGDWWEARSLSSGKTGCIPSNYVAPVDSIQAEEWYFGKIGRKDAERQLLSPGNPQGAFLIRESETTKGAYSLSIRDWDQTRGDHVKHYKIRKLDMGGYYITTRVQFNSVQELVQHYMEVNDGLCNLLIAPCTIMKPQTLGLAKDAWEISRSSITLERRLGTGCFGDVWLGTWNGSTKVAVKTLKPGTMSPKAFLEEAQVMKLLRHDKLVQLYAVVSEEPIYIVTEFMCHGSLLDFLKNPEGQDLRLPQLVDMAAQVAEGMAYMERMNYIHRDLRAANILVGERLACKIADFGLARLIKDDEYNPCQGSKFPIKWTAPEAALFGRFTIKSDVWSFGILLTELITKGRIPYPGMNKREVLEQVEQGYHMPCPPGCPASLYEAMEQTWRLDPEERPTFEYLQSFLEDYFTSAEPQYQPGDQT
Experiment: Kinase selectivity IC50, Fgr
pIC50: −log10 of the molar value.
endpoint label: pIC50

compound="C=CC(=O)N1CCC[C@@H](n2c(=O)n(-c3ccc(Oc4ccccc4)cc3)c3c(N)nccc32)C1 [Tolebrutinib]" study_system=UniProt:P09769 observed_value=7.48
compound="C=CC(=O)N1CCC(CNc2ncnc(N)c2-c2ccc(Oc3ccccc3)cc2)CC1 [Evobrutinib]" study_system=UniProt:P09769 observed_value=5.63

* * *

Biological target: LYN (Homo sapiens, UniProt P07948)
Sequence (P07948 whole entry): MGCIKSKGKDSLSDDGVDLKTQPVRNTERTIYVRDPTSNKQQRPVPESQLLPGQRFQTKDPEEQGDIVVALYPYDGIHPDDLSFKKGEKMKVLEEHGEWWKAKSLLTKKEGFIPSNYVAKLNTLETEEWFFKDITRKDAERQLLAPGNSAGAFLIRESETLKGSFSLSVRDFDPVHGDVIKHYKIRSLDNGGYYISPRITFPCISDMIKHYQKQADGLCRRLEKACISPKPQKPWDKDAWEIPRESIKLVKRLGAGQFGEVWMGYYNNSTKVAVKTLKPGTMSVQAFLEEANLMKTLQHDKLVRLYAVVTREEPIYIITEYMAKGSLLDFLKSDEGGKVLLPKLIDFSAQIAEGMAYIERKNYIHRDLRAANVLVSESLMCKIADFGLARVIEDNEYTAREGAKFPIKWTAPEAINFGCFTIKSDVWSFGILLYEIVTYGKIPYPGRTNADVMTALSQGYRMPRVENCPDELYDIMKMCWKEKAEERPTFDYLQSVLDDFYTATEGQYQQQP
endpoint label: IC50 (µM)

mol_smiles=C=CC(=O)N1CCC[C@@H](n2c(=O)n(-c3ccc(Oc4ccccc4)cc3)c3c(N)nccc32)C1 unit_symbol=µM observed_value=0.194

* * *

Molecular target: Src (Homo sapiens)
Sequence (P12931 whole entry): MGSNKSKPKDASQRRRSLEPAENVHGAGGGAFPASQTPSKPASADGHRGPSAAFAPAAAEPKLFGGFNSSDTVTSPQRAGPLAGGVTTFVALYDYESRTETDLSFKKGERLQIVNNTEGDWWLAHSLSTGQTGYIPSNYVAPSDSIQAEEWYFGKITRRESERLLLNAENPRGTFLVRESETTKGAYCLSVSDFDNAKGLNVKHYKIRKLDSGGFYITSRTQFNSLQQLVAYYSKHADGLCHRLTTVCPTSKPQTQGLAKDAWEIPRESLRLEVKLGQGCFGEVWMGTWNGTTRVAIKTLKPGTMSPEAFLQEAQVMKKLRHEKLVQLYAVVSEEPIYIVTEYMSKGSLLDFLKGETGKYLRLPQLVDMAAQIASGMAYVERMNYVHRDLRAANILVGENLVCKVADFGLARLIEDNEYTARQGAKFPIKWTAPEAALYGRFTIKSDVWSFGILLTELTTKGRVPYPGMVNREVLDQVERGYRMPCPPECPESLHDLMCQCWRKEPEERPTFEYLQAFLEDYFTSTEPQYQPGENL
Assay: Kinase selectivity IC50, Src
pIC50: −log10 of the molar value.
endpoint label: pIC50

mol_smiles=C=CC(=O)N1CCC[C@@H](n2c(=O)n(-c3ccc(Oc4ccccc4)cc3)c3c(N)nccc32)C1 study_system="Src (Homo sapiens)" observed_value=7.27

* * *

Molecular target: SRM (Homo sapiens, UniProt Q9H3Y6)
Sequence (Q9H3Y6 whole entry): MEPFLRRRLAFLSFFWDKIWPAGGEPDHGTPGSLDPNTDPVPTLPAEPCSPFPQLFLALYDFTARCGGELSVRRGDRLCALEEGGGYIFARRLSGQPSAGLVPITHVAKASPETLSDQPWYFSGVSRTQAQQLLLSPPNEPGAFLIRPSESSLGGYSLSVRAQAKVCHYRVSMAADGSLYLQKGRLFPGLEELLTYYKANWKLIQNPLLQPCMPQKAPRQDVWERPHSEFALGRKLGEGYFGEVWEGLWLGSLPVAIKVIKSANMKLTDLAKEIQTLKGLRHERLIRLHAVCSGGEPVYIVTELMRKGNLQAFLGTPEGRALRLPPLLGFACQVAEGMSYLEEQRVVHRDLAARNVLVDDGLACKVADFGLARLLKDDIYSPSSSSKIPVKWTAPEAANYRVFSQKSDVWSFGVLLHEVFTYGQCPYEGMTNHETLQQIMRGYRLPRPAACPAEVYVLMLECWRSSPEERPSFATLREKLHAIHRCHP
endpoint label: IC50 (nM)

molecule="C=CC(=O)N1CCC[C@@H](n2c(=O)n(-c3ccc(Oc4ccccc4)cc3)c3c(N)nccc32)C1 [Tolebrutinib]" study_system="SRM (Homo sapiens, UniProt Q9H3Y6)" endpoint_label=IC50 observed_value=116

* * *

Target: YES (Homo sapiens, UniProt P07947)
Sequence (P07947 whole entry): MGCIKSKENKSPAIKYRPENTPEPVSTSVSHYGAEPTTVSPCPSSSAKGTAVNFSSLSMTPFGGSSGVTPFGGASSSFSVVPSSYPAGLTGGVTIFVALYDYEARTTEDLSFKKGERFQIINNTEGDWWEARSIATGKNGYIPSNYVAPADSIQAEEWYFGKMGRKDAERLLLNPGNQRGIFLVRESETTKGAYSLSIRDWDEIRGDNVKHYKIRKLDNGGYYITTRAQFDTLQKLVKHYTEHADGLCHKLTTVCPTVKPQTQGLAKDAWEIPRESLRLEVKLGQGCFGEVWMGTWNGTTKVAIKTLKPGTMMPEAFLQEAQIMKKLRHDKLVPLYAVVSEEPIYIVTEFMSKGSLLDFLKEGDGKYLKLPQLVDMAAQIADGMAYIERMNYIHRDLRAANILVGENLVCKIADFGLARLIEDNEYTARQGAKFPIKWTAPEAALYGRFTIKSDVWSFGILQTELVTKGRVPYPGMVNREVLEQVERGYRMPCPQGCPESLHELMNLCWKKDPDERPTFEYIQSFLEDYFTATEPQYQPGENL
pIC50: −log10 of the molar value.
endpoint label: pIC50

mol_smiles=C=CC(=O)N1CCC[C@@H](n2c(=O)n(-c3ccc(Oc4ccccc4)cc3)c3c(N)nccc32)C1 study_system="YES (Homo sapiens, UniProt P07947)" endpoint_label=pIC50 observed_value=7.80

* * *

Biological target: CSK (Homo sapiens, UniProt P41240)
Sequence (P41240 whole entry): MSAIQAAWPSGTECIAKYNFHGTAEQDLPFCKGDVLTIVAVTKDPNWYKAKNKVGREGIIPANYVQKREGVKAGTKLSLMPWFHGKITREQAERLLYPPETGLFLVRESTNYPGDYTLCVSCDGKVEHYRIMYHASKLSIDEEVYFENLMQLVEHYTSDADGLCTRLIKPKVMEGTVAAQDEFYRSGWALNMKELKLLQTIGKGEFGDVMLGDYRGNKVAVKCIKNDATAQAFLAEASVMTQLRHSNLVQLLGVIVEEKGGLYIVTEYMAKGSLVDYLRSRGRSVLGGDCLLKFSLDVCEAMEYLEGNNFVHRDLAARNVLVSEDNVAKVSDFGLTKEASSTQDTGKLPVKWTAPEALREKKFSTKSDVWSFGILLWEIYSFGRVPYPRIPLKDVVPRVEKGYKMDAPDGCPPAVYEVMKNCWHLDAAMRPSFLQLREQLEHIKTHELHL
endpoint label: IC50

molecule="C=CC(=O)N1CCC[C@@H](n2c(=O)n(-c3ccc(Oc4ccccc4)cc3)c3c(N)nccc32)C1 [Tolebrutinib]" endpoint_label=IC50 observed_value="0.087 µM"
molecule="C=CC(=O)N1CCC(CNc2ncnc(N)c2-c2ccc(Oc3ccccc3)cc2)CC1 [Evobrutinib]" endpoint_label=IC50 observed_value="7.82 µM"

Sourced from patent US20230091561A1
